Reported Ki values, Muscarinic acetylcholine receptor M1 (Homo sapiens, UniProt P11229).
assay_endpoint: Ki (nM)

1) CN1CCC=C(c2nsnc2OCCCCCC2CCN(CCCN3C(=O)CCc4ccccc43)CC2)C1 ... 6.76
2) O=C1CCc2ccccc2N1CCCN1CCC(CCCCCCCCCO)CC1 ... 282
3) CN1CCC=C(c2nsnc2OCCCCCCCCCCCCCC2CCN(CCCN3C(=O)CCc4ccccc43)CC2)C1 ... 44.7
4) O=C1CCc2ccccc2N1CCCN1CCC(CCCCCO)CC1 ... 468
5) O=C1CCc2ccccc2N1CCCN1CCC(CCCCCCCO)CC1 ... 355
6) CN1CCC=C(c2nsnc2OCCCCCCCC2CCN(CCCN3C(=O)CCc4ccccc43)CC2)C1 ... 0.912

* * *

tested_on: Muscarinic acetylcholine receptor M1 (Homo sapiens)
assay_details: Agonist activity at human M1 receptor expressed in HEK293T cells by BRET based Gq protein activation assay
Format: cell-based, HEK-293T
pEC50: −log10 of the molar value.
Each item that follows carries a reported pEC50.
assay_endpoint: pEC50

1) CCCCC1CCN(CCCN2C(=O)CCc3ccccc32)CC1 ... 6.99
2) O=C1CCc2ccccc2N1CCCN1CCC(CCCCCCCO)CC1 ... 7.00
3) CN1CCC=C(c2nsnc2OCCCCCC2CCN(CCCN3C(=O)CCc4ccccc43)CC2)C1 ... 7.69
4) O=C1CCc2ccccc2N1CCCN1CCC(CCCCCCCCCO)CC1 ... 6.53
5) CN1CCC=C(c2nsnc2OCCCCCCCC2CCN(CCCN3C(=O)CCc4ccccc43)CC2)C1 ... 7.38
6) CN1CCC=C(c2nsnc2OCCCCCCCCCC2CCN(CCCN3C(=O)CCc4ccccc43)CC2)C1 ... 6.06
7) O=C1CCc2ccccc2N1CCCN1CCC(CCCCCO)CC1 ... 6.69

* * *

tested_on: Muscarinic acetylcholine receptor M2 (Homo sapiens, UniProt P08172)
assay_endpoint: log10 Ki (log10 of the value in nM)

1. O=C1CCc2ccccc2N1CCCN1CCC(CCCO)CC1 ... 3.51
2. O=C1CCc2ccccc2N1CCCN1CCC(CCCCCCCCCCCCCO)CC1 ... 2.68
3. CN1CCC=C(c2nsnc2OCCCCCCCC2CCN(CCCN3C(=O)CCc4ccccc43)CC2)C1 ... 0.14
4. CN1CCC=C(c2nsnc2OCCCCCC2CCN(CCCN3C(=O)CCc4ccccc43)CC2)C1 ... 1.04
5. O=C1CCc2ccccc2N1CCCN1CCC(CCCCCO)CC1 ... 2.78
6. O=C1CCc2ccccc2N1CCCN1CCC(CCCCCCCCCCCO)CC1 ... 2.62
7. CN1CCC=C(c2nsnc2OCCCCCCCCCC2CCN(CCCN3C(=O)CCc4ccccc43)CC2)C1 ... 0.23

* * *

tested_on: Muscarinic acetylcholine receptor M4 (Homo sapiens, UniProt P08173)
Sequence (P08173 whole entry): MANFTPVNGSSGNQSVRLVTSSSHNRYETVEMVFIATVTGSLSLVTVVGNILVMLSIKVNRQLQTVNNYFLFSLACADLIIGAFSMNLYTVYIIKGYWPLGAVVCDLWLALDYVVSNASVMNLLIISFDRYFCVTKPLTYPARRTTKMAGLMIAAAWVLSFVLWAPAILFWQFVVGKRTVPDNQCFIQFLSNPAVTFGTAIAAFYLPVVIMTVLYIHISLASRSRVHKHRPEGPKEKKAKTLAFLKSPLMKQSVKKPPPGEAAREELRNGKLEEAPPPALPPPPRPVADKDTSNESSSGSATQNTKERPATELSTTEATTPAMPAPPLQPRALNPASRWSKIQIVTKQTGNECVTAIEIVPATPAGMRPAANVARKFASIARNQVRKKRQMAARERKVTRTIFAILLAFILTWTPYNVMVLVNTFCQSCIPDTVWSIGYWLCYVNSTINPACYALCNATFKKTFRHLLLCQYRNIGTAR
assay_details: Agonist activity at human M4 receptor expressed in HEK293T cells by BRET based Gq protein engagement assay
Recorded EC50, one value per entry.
assay_endpoint: EC50 (µM)

1. CN1CCC=C(c2nsnc2OCCCCCC2CCN(CCCN3C(=O)CCc4ccccc43)CC2)C1 ... 7.08
2. CN1CCC=C(c2nsnc2OCCCCCCCC2CCN(CCCN3C(=O)CCc4ccccc43)CC2)C1 ... 0.0186

* * *

tested_on: UniProtKB P11229
pIC50: −log10 of the molar value.
assay_endpoint: pIC50

1. CCCCC1CCN(CCCN2C(=O)CCc3ccccc32)CC1 ... 5.80

* * *

tested_on: Muscarinic acetylcholine receptor M4 (Homo sapiens) (UniProt P08173)
Sequence (P08173 whole entry): as above
assay_details: Agonist activity at human M4 receptor expressed in HEK293T cells by BRET based Gq protein engagement assay relative to carbachol
Type: cell-based
assay_conditions: HEK-293T
assay_endpoint: Emax

1) CN1CCC=C(c2nsnc2OCCCCCC2CCN(CCCN3C(=O)CCc4ccccc43)CC2)C1 ... < 0%
2) O=C1CCc2ccccc2N1CCCN1CCC(CCCCCCCO)CC1 ... < 0%
3) CN1CCC=C(c2nsnc2OCCCCCCCCCC2CCN(CCCN3C(=O)CCc4ccccc43)CC2)C1 ... < 0%
4) CN1CCC=C(c2nsnc2OCCCCCCCC2CCN(CCCN3C(=O)CCc4ccccc43)CC2)C1 ... 18%
5) O=C1CCc2ccccc2N1CCCN1CCC(CCCCCCCCCO)CC1 ... < 0%

* * *

tested_on: Muscarinic acetylcholine receptor M1 (Homo sapiens)
Sequence (whole entry): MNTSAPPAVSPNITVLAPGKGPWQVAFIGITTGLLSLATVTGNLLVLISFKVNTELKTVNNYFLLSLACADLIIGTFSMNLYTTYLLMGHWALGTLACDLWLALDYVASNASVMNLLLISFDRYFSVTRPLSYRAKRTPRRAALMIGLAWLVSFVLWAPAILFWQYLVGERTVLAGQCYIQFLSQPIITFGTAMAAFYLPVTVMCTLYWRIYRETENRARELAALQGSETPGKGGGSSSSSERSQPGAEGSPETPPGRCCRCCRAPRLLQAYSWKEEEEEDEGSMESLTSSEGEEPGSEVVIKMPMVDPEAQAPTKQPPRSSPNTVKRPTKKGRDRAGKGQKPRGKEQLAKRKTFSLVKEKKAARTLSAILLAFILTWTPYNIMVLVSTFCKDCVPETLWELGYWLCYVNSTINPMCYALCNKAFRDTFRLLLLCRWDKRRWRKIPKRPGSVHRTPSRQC
assay_details: Agonist activity at human M1 receptor expressed in HEK293T cells by BRET based Gq protein engagement assay relative carbachol
Type: cell-based
assay_conditions: HEK-293T
assay_endpoint: Emax

1. O=C1CCc2ccccc2N1CCCN1CCC(CCCCCCCCCO)CC1 ... < 0%
2. CN1CCC=C(c2nsnc2OCCCCCC2CCN(CCCN3C(=O)CCc4ccccc43)CC2)C1 ... < 0%
3. CN1CCC=C(c2nsnc2OCCCCCCCCCC2CCN(CCCN3C(=O)CCc4ccccc43)CC2)C1 ... < 0%

* * *

pIC50: −log10 of the molar value.
Parameter pIC50, tested on Muscarinic acetylcholine receptor M1 (Homo sapiens, UniProt P11229), listed per item.
assay_endpoint: pIC50

1. O=C1CCc2ccccc2N1CCCN1CCC(CCCCCCCO)CC1 ... 5.94
2. CCCCC1CCN(CCCN2C(=O)CCc3ccccc32)CC1 ... 6.76
3. CN1CCC=C(c2nsnc2OCCCCCC2CCN(CCCN3C(=O)CCc4ccccc43)CC2)C1 ... 5.37
4. O=C1CCc2ccccc2N1CCCN1CCC(CCCCCCCCCO)CC1 ... 6.31
5. O=C1CCc2ccccc2N1CCCN1CCC(CCCCCO)CC1 ... 7.54

* * *

tested_on: Muscarinic acetylcholine receptor M1 (Homo sapiens)
assay_details: Agonist activity at human M1 receptor expressed in HEK293T cells by BRET based beta-arrestin engagement assay
pEC50: −log10 of the molar value.
Recorded pEC50 values for a group of compounds are listed next.
assay_endpoint: pEC50

1. CN1CCC=C(c2nsnc2OCCCCCCCCCC2CCN(CCCN3C(=O)CCc4ccccc43)CC2)C1 ... 4.21
2. CCCCC1CCN(CCCN2C(=O)CCc3ccccc32)CC1 ... 6.08
3. O=C1CCc2ccccc2N1CCCN1CCC(CCCCCCCCCO)CC1 ... 3.61
